The origin of these recorded values is patent US20260242478A1.

# system_under_test: anti-CD28 scFv (VH - linker 1 - VL) (biotinylated (site not given))
# Sequence (scFv, as listed by the source): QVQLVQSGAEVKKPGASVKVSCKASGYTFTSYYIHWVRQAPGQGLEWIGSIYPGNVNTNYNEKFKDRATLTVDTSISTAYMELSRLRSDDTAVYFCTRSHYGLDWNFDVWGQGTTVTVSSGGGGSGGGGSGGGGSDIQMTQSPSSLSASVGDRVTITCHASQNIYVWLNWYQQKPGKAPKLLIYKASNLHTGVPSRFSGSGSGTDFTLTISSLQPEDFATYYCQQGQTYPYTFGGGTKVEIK
# test_method_notes: phage ELISA as before, wells pre-incubated with soluble CD28 (competitor)
Class field: derived from CD28 scFv signal in presence of CD28; ranges category 1 (below 0.3), category 2 (0.3 to below 0.4), category 3 (0.4 or more)

Before answering, review these 4 worked examples.
binder	assigned_category
MDWCPRDMWLFCYN (tested as crude clonal phage supernatant; not shown: pIII of the bacteriophage to which the peptide is fused) [Phage-74, clonal phage peptide MDWCPRDMWLFCYN]	category 3
MDWCPMYMWYECFA (tested as crude clonal phage supernatant; not shown: pIII of the bacteriophage to which the peptide is fused) [Phage-68, clonal phage peptide MDWCPMYMWYECFA]	category 2
MNWCPTALWHVCFN (tested as crude clonal phage supernatant; not shown: pIII of the bacteriophage to which the peptide is fused) [Phage-67, clonal phage peptide MNWCPTALWHVCFN]	category 1
MDWCPRDLWHECFS (tested as crude clonal phage supernatant; not shown: pIII of the bacteriophage to which the peptide is fused) [Phage-79, clonal phage peptide MDWCPRDLWHECFS]	category 2

*Q* Sort MDWCPRYLWNECFY (tested as crude clonal phage supernatant; not shown: pIII of the bacteriophage to which the peptide is fused) [Phage-66, clonal phage peptide MDWCPRYLWNECFY] into one of the categories.
*A* category 2

*Q* Sort MDWCPRYLWHECFA (tested as crude clonal phage supernatant; not shown: pIII of the bacteriophage to which the peptide is fused) [Phage-71, clonal phage peptide MDWCPRYLWHECFA] into one of the categories.
*A* category 3

*Q* Sort MDWCPRDLWTECFA (tested as crude clonal phage supernatant; not shown: pIII of the bacteriophage to which the peptide is fused) [Phage-82, clonal phage peptide MDWCPRDLWTECFA] into one of the categories.
*A* category 1

*Q* Sort MDWCPRFLWSVCFN (tested as crude clonal phage supernatant; not shown: pIII of the bacteriophage to which the peptide is fused) [Phage-81, clonal phage peptide …] into one of the categories.
*A* category 3

*Q* Sort MDWCPRHLWHECFF (tested as crude clonal phage supernatant; not shown: pIII of the bacteriophage to which the peptide is fused) [Phage-92, clonal phage peptide MDWCPRHLWHECFF] into one of the categories.
*A* category 2
